- target entity: Shp1 (Homo sapiens, UniProt P29350)
- Construct: the C-terminal truncated form of human Shp1 cDNA (His-Shp1; amino acids 1–529); made in house; host or cells: E. coli BL21(DE3)
- protocol summary: Steady-state Trp fluorescence emission spectroscopy of purified Shp1
- Type: binding
- measurement parameters: Shp1 1.2 μM, GroPIns4P 0.0 to 5.0 μM, emission at 332 nm; read-out: apparent EC50 of Trp fluorescence quenching
pEC50: −log10 of the molar value.
assay endpoint: pEC50

### Prompt Name the reported pEC50 value associated with the compound O=P(O)(O)OC1C(O)C(O)C(OP(=O)(O)OCC(O)CO)C(O)C1O (stereo not shown) [GroPIns4P, glycerophosphoinositol 4-phosphate]
### Response ~6.22

* * *

- target entity: Shp1 (Homo sapiens)
- Construct: the C-terminal truncated form of human Shp1 cDNA (His-Shp1; amino acids 1–529); made in house; host or cells: E. coli BL21(DE3)
- protocol summary: Isothermal titration calorimetry, Shp1 WT
- Type: binding
- measurement parameters: summary over ITC, Trp fluorescence and SPR competition; read-out: affinity of the binding
assay endpoint: Kd

### Prompt Name the reported Kd value associated with the compound O=P(O)(O)OC1C(O)C(O)C(OP(=O)(O)OCC(O)CO)C(O)C1O (stereo not shown) [GroPIns4P, glycerophosphoinositol 4-phosphate]
### Response 0.3 to 0.8 µM

* * *

- target entity: Shp1 (Homo sapiens, UniProt P29350)
- Construct: the C-terminal truncated form of human Shp1 cDNA (His-Shp1; amino acids 1–529); made in house; host or cells: E. coli BL21(DE3)
- Sequence (P29350 1-529 isoform P29350-3): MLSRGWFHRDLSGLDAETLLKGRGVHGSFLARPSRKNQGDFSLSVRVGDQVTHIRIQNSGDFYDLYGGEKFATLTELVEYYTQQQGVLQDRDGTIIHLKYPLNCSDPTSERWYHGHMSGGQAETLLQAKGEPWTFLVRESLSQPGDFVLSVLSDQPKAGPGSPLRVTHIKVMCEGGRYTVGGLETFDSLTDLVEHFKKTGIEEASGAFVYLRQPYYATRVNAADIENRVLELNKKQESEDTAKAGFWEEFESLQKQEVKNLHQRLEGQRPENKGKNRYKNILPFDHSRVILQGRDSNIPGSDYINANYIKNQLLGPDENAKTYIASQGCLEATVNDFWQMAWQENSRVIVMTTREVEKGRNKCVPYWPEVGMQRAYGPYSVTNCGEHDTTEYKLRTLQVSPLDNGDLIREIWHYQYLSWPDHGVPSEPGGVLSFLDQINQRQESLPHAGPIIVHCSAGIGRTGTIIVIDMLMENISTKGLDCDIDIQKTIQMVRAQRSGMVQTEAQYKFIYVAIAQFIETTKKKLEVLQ
- protocol summary: SPR competition assay with free GroPIns4P
- measurement parameters: Shp1 1.2 μM; read-out: EC50 of competition with Shp1 binding to GroPIns4P-Bio chip
assay endpoint: EC50

### Prompt Please provide the recorded EC50 for O=P(O)(O)OC1C(O)C(O)C(OP(=O)(O)OCC(O)CO)C(O)C1O (stereo not shown) [GroPIns4P, glycerophosphoinositol 4-phosphate] , tested on Shp1 (Homo sapiens, UniProt P29350).
### Response ~800 nM
